# Test system: MCF7 breast
# assayMethodText: NCI-60 one-dose screen, 48 h
# experimentalParameters: 10 µM
About 83,000 compounds went through this panel and 20% of them were active in at least one assay; those are over-represented in the sample as a whole. Calls of active or inactive are those of the source. The calls were made as follows: active = growth percent below 10; inactive = the rest.
Could you please pick one outcome from this set? active, inactive

Hello, I am checking results. What call was entered for CCCCCCCOc1cccc(/C=C2/C(=O)N=C3SCCCN32)c1 ? inactive

Tell me the assay call for Cc1cc2cc3c(=O)[nH]c(=O)cc-3n(CC(O)C(O)C(O)CO)c2cc1C (stereo not given) please. inactive

Field: outcome | Entry: NC(N)=NS(=O)(=O)c1ccc(Nc2ccc3nnc(-c4ccncc4)n3n2)cc1 inactive

Could you please tell me the result logged for CCCOCC(O)CNCCN (stereo not given) in this assay? inactive

Dear all, I need the recorded test outcome for CCCCC(=O)N(c1ccc(Nc2c3ccccc3nc3cc([N+](=O)[O-])ccc23)cc1)S(C)(=O)=O , thank you. inactive

Answer briefly: the call reported for O=C(CSc1nnc(-c2ccc(Cl)cc2)o1)c1ccccc1 in this assay. inactive

Tell me the recorded outcome of this test for Cc1ccc([P+](Cc2ccccc2)(c2ccccc2)c2ccccc2)cc1 . active

# fetch the recorded call for COc1ccc(/C=C2\SC(=S)N(CCCN3CCOCC3)C2=O)c(OC)c1 here inactive

Answer briefly: the call reported for COc1ccc(-c2oncc2-c2cc(OC)c3c(c2)OCO3)cc1 in this assay. inactive

Record lookup: outcome of this test for Cc1cc(/C=C2\SC(=Nc3ccccc3)N(C3CCCC3)C2=O)c(C)n1-c1ccc(Cl)cc1 ? active

----------
# Tested on: SR leukemia
# assayMethodText: NCI-60 one-dose screen, 48 h
# experimentalParameters: 10 µM
# Description: Growth inhibition of the SR human tumor cell line is measured as a screen for anti-cancer activity. Cells are grown in 96 well plates and exposed to the test compound for 48 hours. Compounds are tested at a single concentration, which is 10^-5 M for most compounds. The reported endpoint is percent growth (GI% or GIPRCNT), where numbers from 0 - 100% represent growth inhibition, and numbers from -100% - 0 represent cell death. For example, a value of 40 represents 60% growth inhibition. […]
The panel holds about 83,000 compounds, 20% with a hit somewhere; the sample as a whole holds those more often. The source made the active and inactive calls. Rule for the calls: active = growth percent below 10; inactive = the rest.
One label from this list, please: 1 = active, 0 = inactive

Assay result, entry CCN(CCCNC(=O)Cc1cc(=O)oc2cc(N(C)C)ccc12)CCNc1ccnc2cc(Cl)ccc12 — outcome? 1

Dear colleague, could you share the recorded outcome for COc1ccc(-c2[nH]ncc2-c2cc(OC)c(OC)c(OC)c2)cc1 when you have a moment? 1

Which outcome was entered for the molecule COC(=O)[C@]12CC[C@@H](C)[C@H](C)[C@@H]1C1=CC[C@@H]3[C@@]4(C)C[C@@H](O)[C@H](O)[C@@](C)(CO)[C@@H]4[C@H](O)C[C@@]3(C)[C@]1(C)CC2 in this test? 1

Recorded test call requested for Cc1nn2c(/C=C3/C(=O)Nc4ccc(Cl)cc43)c(-c3ccccc3)nc2s1 1

I would be grateful if you could indicate the recorded call for Clc1ccc(-c2nc(-c3cccs3)cn3ccnc23)cc1 . 0

Field: outcome | Entry: O=C(O)c1ccccc1C(=O)c1cccc2c(F)cccc12 0

# outcome recorded in this test, key = CCc1c(C(=O)NCc2c(O)ccc3cccc(O)c23)[nH]c(C)c1C(C)=O 0

For this molecule, state the assay outcome: COc1cc(C(=O)n2nc(N)c3c(C)cc(C)nc32)cc(OC)c1OC 0

Just curious, what result did Cc1cccc2c1O/C(=C\c1ncc([N+](=O)[O-])n1C)C2=O get here? 1

----------
Would you mind telling me the reported growth of each entry?
# Test system: UACC-62 melanoma
# assayMethodText: NCI-60 one-dose screen, 48 h (100 = growth as untreated, 0 = no growth, -100 = all killed)
# experimentalParameters: 10 µM
The panel holds about 83,000 compounds, 20% with a hit somewhere; the sample as a whole holds those more often.
Report as a plain number; the unit % is understood.

Using the record for CCCCCCCCCCCC(c1ccccc1)N(C)C (stereo unspecified) , report its growth. 94.9

What value of growth has been reported for the following molecule? CCOC(=O)C1=C(Nc2ccc(OC)cc2)C(N)=NC1=N 30.4

Given the entry C/C(=N\NC(N)=S)C(C)(C)O , report its measured growth. 103

If you can, please state the reported growth value of CC1(C)CCc2cc(-c3ccn(S(=O)(=O)c4ccc(Cl)cc4)n3)ccc2O1 . 75

Any idea what growth was measured for c1ccc(COCC[P+](c2ccccc2)(c2ccccc2)c2ccccc2)cc1 ? 2.32

For the molecule shown here, Nc1nc2c(nnn2C2CC(O)C(CO)O2)c(=O)[nH]1 (stereo unspecified) , give the reported growth. 25

Requested field: growth. Item: CCCC(C)c1ccc(OCCCCCCN2CCNCC2)cc1 (stereo unspecified) -46.4

Which growth value is on record for CCCc1c(C)nc2scc(-c3ccc(Cl)cc3)n2c1=O ? 100

State the recorded growth for this entry: COc1ccc(/C=C(\c2cc(OC)c(OC)c(OC)c2)c2nnc(-c3cccs3)o2)cc1 78.1

Consider the molecule shown here: Cc1ccc2c(c1)-c1cc(C)nn1-c1ccc(C#N)cc1O2 What is its recorded growth? 52.4

Returns the measured growth for the input molecule. Input: O=[N+]([O-])c1ccc(-c2nc(Cl)c3c(n2)CCCC3)o1 86.9

----------
# Tested on: SNB-75 CNS
# assayMethodText: NCI-60 one-dose screen, 48 h (100 = growth as untreated, 0 = no growth, -100 = all killed)
# experimentalParameters: 10 µM
# Procedure: Growth inhibition of the SNB-75 human tumor cell line is measured as a screen for anti-cancer activity. Cells are grown in 96 well plates and exposed to the test compound for 48 hours. Compounds are tested at a single concentration, which is 10^-5 M for most compounds. The reported endpoint is percent growth (GI% or GIPRCNT), where numbers from 0 - 100% represent growth inhibition, and numbers from -100% - 0 represent cell death. For example, a value of 40 represents 60% growth inhibition. […]
About 83,000 compounds went through this panel and 20% of them were active in at least one assay; those are over-represented in the sample as a whole.
parameter: growth (%)
Only the number, expressed in %, is required.

Need growth, item CCCCCC(=O)N1c2ccccc2NC2=C(C(=O)CC(c3ccc(OC)c(OC)c3)C2)C1c1ccc(C(F)(F)F)cc1 (configuration not stated) 82.7

Value lookup for growth; key = O=C(NCCCl)c1cc(Cl)cc(Cl)c1 76.8

Which growth value belongs to Cc1nc(N)sc1Sc1nc2ccc(Cl)cc2c(=O)n1-c1ccc(Oc2ccccc2)cc1 ? 96

Fill in: growth of C=CCNCCCN1C(=O)c2ccc3c4c(ccc(c24)C1=O)C(=O)N(CCCNCC=C)C3=O is ___ -98.2

Which growth reading was recorded for the molecule Cc1[nH]nc2c(=S)[nH]c(=O)[nH]c12 ? 89.7

Can you look up the measured growth of COc1cc(Cn2c(-c3ccccc3)c(Cl)c3c2-c2oncc2CC3)cc(OC)c1 for me? 94.8

Value lookup for growth; key = CCCn1c(=O)c2c(nc(-c3cccc(OCCCCl)c3)n2C)n(CCC)c1=O -12.7

Tell me the measured growth of COc1ccc(-c2oncc2-c2cc(OC)c3c(c2)OCO3)cc1 , please. -9.45

GET /values?readout=growth&item= CNC(=O)c1cc(Oc2ccc(NC(=O)Nc3ccc(Cl)c(OC(C)C)c3)c(F)c2)ccn1 75.3

Dear colleague, I am looking for the recorded growth of the following molecule: COc1ccc(-c2cc(=O)n(-c3nc4ccccc4[nH]3)[nH]2)cc1OC 60.2

What value of growth has been reported for the following molecule? NC(N)=NS(=O)(=O)c1ccc(Nc2ccc3nnc(-c4ccncc4)n3n2)cc1 90.4

Quick one: growth for N=C(N)c1ccc(-c2ccc(-c3ccccc3)s2)cc1F ? -92.4

What measured growth goes with COc1cccc(-c2nnc(COc3ccc(-c4nc5ccccc5[nH]4)cc3OC)o2)c1 ? 109

What value of growth has been reported for the following molecule? Cc1cc(C(C)(C)CC(C)(C)C)ccc1OCCOCC[N+](C)(C)Cc1ccccc1 -63.4

# get_value(readout='growth', item= COc1cccc(C(=O)N(c2ccc(F)c(F)c2)C(C(=O)NC(C)(C)C)c2cc3c(C)cc(C)cc3nc2Cl)c1 (configuration not stated) ) 62.9

For the molecule COc1ccc2nc(-c3ccccc3)cc(C(C)=O)c2c1 , what growth is on record? 79.7

Dear colleague, I am looking for the recorded growth of the following molecule: C=CCn1ccc(=O)nc1SC 91.2

Find the recorded growth belonging to NC(=O)C1CCCN(Cc2c[nH]c3ccccc23)C1 (configuration not stated) and report it. 85.9

# input molecule: CC(=O)/C(=C\c1ccc(Cl)cc1)c1ccccc1 ; wanted: its growth 37.4

Data request, read-out growth, for O=C1/C(=C/c2ccc(O)cc2)CSc2ccc(Cl)cc21 93.8

Could you share which growth value was measured for N#C/C(=C/c1cc([N+](=O)[O-])ccc1Cl)C(N)=O ? 88.9

Could you share which growth value was measured for CCC(CCNc1cc(OC)cc2cccnc12)CN1C(=O)c2ccccc2C1=O (configuration not stated) ? 84
